- Test Summary: Bioavailability in CD rat at 1 mg/kg, […]
- Format: ADME, organism-based
- Details: in vivo
Readout Name: bioavailability (%)

mol=CC(C)Oc1ccc(-c2nc(-c3ccc4c(c3)CCN(C(CO)CO)CC4)no2)cc1C#N readout_name=bioavailability reported_value=68

---

- Tested System: Voltage-gated inwardly rectifying potassium channel KCNH2 (Homo sapiens, UniProt Q12809)
- Sequence (Q12809 whole entry): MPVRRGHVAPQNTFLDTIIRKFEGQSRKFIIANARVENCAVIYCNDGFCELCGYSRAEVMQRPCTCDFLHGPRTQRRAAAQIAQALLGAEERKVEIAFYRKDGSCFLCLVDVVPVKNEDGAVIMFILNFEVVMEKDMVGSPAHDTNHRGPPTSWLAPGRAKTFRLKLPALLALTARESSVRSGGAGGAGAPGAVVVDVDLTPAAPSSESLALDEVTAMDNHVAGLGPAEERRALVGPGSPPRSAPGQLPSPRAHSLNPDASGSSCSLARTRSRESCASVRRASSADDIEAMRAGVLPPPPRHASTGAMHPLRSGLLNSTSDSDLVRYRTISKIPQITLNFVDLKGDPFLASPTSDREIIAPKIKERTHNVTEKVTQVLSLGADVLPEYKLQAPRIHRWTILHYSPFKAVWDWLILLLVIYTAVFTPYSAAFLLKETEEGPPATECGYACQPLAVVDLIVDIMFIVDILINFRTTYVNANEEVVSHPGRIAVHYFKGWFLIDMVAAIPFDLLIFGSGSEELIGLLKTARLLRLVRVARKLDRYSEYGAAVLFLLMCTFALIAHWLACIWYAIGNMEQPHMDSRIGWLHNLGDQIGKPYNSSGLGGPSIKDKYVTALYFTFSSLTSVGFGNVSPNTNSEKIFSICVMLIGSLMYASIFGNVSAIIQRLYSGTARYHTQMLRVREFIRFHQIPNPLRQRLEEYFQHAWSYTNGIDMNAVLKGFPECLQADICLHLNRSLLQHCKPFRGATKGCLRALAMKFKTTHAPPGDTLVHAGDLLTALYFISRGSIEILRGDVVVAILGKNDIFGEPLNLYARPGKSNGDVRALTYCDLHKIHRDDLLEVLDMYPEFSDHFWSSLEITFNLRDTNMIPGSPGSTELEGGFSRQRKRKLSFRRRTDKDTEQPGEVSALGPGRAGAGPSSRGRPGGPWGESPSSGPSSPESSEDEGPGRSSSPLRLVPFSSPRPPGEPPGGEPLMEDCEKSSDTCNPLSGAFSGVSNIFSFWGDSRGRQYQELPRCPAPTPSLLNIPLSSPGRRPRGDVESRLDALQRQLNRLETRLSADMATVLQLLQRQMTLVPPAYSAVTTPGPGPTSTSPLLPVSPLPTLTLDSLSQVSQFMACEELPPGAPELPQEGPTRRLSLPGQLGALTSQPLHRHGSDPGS
pIC50: −log10 of the molar value.
Classification field: enter YES for pIC50 values not below 5, NO for values below it.

mol=Cc1c(-c2noc(-c3ccc(OC(C)C)c(C#N)c3)n2)ccc2c1CCN(CC(=O)N[C@@H](C)CO)C2 group_label=NO
mol=CC(C)Oc1ncc(-c2nc(-c3ccc4c(c3)CCNCC4)no2)cc1C#N group_label=YES
mol=CC(C)Oc1ccc(-c2nc(-c3ccc4c(c3)CCN(C(CO)CO)C4)no2)cc1C#N group_label=NO
mol=CC(C)Oc1ccc(-c2nc(-c3ccc4c(c3)CCN(C(CO)CO)CC4)no2)cc1C#N group_label=NO

---

- Tested System: Sphingosine 1-phosphate receptor 1 (Homo sapiens, UniProt P21453)
- Sequence (P21453 whole entry): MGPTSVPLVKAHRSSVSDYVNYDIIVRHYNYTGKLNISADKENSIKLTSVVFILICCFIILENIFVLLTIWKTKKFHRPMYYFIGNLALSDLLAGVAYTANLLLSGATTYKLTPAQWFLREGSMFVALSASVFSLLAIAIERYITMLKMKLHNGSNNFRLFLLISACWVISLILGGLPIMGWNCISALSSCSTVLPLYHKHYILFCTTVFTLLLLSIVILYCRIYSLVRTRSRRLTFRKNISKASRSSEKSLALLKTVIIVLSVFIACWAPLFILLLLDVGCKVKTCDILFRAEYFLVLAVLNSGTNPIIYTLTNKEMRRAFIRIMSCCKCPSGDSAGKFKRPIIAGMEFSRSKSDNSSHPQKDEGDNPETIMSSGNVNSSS
- Test Summary: Agonist activity at human S1P1 receptor expressed in CHO-K1 EDG1 cells expressing beta-arrestin 2 after 105 mins by chemi-luminescence assay
pEC50: −log10 of the molar value.
Assign label 1 whenever pEC50 does not fall below 8; assign label 0 whenever it does.

mol=CC(C)Oc1ccc(-c2nc(-c3cccc4c3OCCN(C(CO)CO)C4)no2)cc1C#N tested_system="Sphingosine 1-phosphate receptor 1 (Homo sapiens, UniProt P21453)" group_label="label 0"
mol=Cc1c(-c2noc(-c3ccc(OC(C)C)c(C#N)c3)n2)ccc2c1CCN(CC(=O)N[C@@H](C)CO)C2 tested_system="Sphingosine 1-phosphate receptor 1 (Homo sapiens, UniProt P21453)" group_label="label 1"
mol=Cc1c(-c2noc(-c3ccc(OC(C)C)c(C#N)c3)n2)cnc2c1CCN(C(CO)CO)C2 tested_system="Sphingosine 1-phosphate receptor 1 (Homo sapiens, UniProt P21453)" group_label="label 0"
mol=CC(C)Oc1ccc(-c2nc(-c3ccc4c(c3)CCN(C(CO)CO)CC4)no2)cc1C#N tested_system="Sphingosine 1-phosphate receptor 1 (Homo sapiens, UniProt P21453)" group_label="label 0"
mol=Cc1c(-c2noc(-c3ccc(OC(C)C)c(C#N)c3)n2)ccc2c1CCN(C(CO)CO)C2 tested_system="Sphingosine 1-phosphate receptor 1 (Homo sapiens, UniProt P21453)" group_label="label 1"
mol=Cc1c(-c2noc(-c3ccc(OC(C)C)c(C#N)c3)n2)ccc2c1CCN(CCC(=O)O)C2 tested_system="Sphingosine 1-phosphate receptor 1 (Homo sapiens, UniProt P21453)" group_label="label 1"
mol=CC(C)Oc1ncc(-c2nc(-c3ccc4c(c3)CCNCC4)no2)cc1C#N tested_system="Sphingosine 1-phosphate receptor 1 (Homo sapiens, UniProt P21453)" group_label="label 0"

---

- Test Summary: Oral bioavailability in Beagle dog at 1 mg/kg
- Format: ADME, organism-based, Canis lupus familiaris
- Details: in vivo
Readout Name: bioavailability (%)

mol=Cc1c(-c2noc(-c3ccc(OC(C)C)c(C#N)c3)n2)ccc2c1CCN(C(CO)CO)C2 readout_name=bioavailability reported_value=45

---

- Test Summary: Dissociation constant, pKa of the compound
- Type: physicochemical
Is pKa at least 7? Then Fulfilled. If not, Not fulfilled.

mol=CC(C)Oc1ncc(-c2nc(-c3ccc4c(c3)CCNCC4)no2)cc1C#N group_label=Fulfilled
mol=Cc1c(-c2noc(-c3ccc(OC(C)C)c(C#N)c3)n2)ccc2c1CCN(CC(=O)N[C@@H](C)CO)C2 group_label="Not fulfilled"
mol=Cc1c(-c2noc(-c3ccc(OC(C)C)c(C#N)c3)n2)cnc2c1CCN(C(CO)CO)C2 group_label="Not fulfilled"
mol=CC(C)Oc1ccc(-c2nc(-c3ccc4c(c3)CCN(C(CO)CO)CC4)no2)cc1C#N group_label=Fulfilled
mol=CC(C)Oc1ccc(-c2nc(-c3cccc4c3OCCN(C(CO)CO)C4)no2)cc1C#N group_label="Not fulfilled"
mol=CC(C)Oc1ccc(-c2nc(-c3ccc4c(c3)CCN(C(CO)CO)C4)no2)cc1C#N group_label=Fulfilled
mol=Cc1c(-c2noc(-c3ccc(OC(C)C)c(C#N)c3)n2)ccc2c1CCN(C(CO)CO)C2 group_label=Fulfilled

These measurements were taken from ChEMBL document CHEMBL1833884.
